# testedTarget: F508delCFTR (Homo sapiens, UniProt P13569, DEL508-508)
# Construct: expressed in transfected cells; host or cells: CFBE41o- human lung-derived epithelial cells (CFBE4lo-F508delCFTR-HRP), doxycycline-inducible
# Sequence (P13569 with tags, fused parts or gaps DEL508-508): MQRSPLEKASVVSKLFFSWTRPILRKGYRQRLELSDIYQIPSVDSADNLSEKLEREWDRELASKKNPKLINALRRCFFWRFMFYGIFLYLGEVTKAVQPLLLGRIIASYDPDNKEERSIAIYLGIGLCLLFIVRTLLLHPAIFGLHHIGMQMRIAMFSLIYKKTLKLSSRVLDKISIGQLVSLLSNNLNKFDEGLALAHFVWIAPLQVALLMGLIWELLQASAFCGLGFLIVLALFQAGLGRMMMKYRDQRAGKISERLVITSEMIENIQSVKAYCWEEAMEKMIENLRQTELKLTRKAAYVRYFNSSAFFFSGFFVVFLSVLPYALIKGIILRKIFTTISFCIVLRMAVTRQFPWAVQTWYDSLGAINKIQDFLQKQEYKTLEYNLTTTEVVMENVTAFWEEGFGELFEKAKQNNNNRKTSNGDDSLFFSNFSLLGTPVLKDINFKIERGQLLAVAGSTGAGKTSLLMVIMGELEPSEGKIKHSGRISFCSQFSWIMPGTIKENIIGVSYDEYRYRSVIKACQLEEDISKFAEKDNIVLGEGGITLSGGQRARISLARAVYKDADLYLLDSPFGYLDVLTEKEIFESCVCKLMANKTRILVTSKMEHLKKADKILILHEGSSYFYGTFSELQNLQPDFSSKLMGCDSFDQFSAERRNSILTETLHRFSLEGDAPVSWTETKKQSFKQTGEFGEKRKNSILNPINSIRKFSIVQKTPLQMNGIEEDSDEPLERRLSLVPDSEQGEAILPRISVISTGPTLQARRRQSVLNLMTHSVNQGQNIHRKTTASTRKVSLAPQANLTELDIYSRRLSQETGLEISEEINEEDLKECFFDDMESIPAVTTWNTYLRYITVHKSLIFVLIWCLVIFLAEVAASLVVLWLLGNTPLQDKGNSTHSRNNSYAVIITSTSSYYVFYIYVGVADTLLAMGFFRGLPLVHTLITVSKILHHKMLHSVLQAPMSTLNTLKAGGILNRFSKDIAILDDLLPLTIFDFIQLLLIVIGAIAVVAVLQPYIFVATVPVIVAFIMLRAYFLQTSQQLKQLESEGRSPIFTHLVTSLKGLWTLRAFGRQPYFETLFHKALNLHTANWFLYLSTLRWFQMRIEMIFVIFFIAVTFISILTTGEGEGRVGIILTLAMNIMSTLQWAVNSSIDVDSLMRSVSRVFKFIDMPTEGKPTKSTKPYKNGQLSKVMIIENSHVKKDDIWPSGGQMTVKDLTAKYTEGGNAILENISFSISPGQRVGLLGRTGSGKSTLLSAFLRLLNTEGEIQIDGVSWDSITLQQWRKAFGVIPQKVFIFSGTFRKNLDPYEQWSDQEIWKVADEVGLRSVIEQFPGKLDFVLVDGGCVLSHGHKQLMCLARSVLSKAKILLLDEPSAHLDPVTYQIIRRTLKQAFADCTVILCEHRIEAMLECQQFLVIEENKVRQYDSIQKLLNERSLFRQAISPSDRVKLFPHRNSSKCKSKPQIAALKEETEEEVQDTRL
# assaySummary: Cell Surface Expression-Horse Radish Peroxidase (CSE-HRP) Assay;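 further: percent of the 2 µM on-plate positive control corrector response above DMSO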
# Type: cell-based
# conditionDetails: without co-corrector; maximum at any tested concentration, normalized to on-plate positive control; read-out: Maximum % activity (without co-corrector)
readoutKind: Emax

Example entries and their recorded answers appear below.
- compound: "CC(C)(C)[C@@H]1[C@@H](Nc2cccc(OC(F)F)n2)[C@@H](c2ccccc2)N(C(=O)C2CCCCC2)[C@H]1C(=O)O (racemic) [Example I-21]"
  testedTarget: "F508delCFTR (Homo sapiens, UniProt P13569, DEL508-508)"
  Emax: "< 100%"
- compound: "COc1ccc(C(C)(C)C)cc1CN[C@H]1[C@H](C(C)(C)C)[C@@H](C(=O)O)N(C(=O)[C@@H]2C[C@H]3CC[C@@H]2O3)[C@H]1c1ccccc1 (relative stereo) [Example I-241]"
  testedTarget: "F508delCFTR (Homo sapiens, UniProt P13569, DEL508-508)"
  Emax: "> 200%"
- compound: "Cc1cc(C(F)(F)F)cc(N[C@H]2[C@H](C(C)(C)C)[C@@H](C(=O)O)N(C(=O)OC(C)C)[C@H]2c2ccccc2C(C)C)n1 [Example 82]"
  testedTarget: "F508delCFTR (Homo sapiens, UniProt P13569, DEL508-508)"
  Emax: "< 100%"
- compound: "CCc1c(C(=O)N2[C@H](C(=O)O)[C@@H](C(C)(C)C)[C@H](NCc3cc(C(C)(C)C)ccc3OC)[C@@H]2c2ccccc2)cnn1-c1ccc(OC)nn1 [Example I-144]"
  testedTarget: "F508delCFTR (Homo sapiens, UniProt P13569, DEL508-508)"
  Emax: "100 to 200%"
- compound: "COc1cc2c(cc1CN[C@H]1[C@H](C(C)(C)C)[C@@H](C(=O)O)N(C(=O)[C@@H]3CCCC(F)(F)C3)[C@H]1c1ccccc1)CCC2 [Example I-190]"
  testedTarget: "F508delCFTR (Homo sapiens, UniProt P13569, DEL508-508)"
  Emax: "> 200%"

Query string: Give Emax (F508delCFTR (Homo sapiens, UniProt P13569, DEL508-508)) of the following compound: COc1ncc(C(F)(F)F)cc1CN[C@H]1[C@H](C(C)(C)C)[C@@H](C(=O)O)N(C(=O)C2CCCC2)[C@H]1c1ccccc1C(C)C [Example 98]
Result string: > 200%

Query string: Another compound to look at: COc1ncc(C2CCC2)cc1CN[C@H]1[C@H](C(C)(C)C)[C@@H](C(=O)O)N(C(=O)C2COc3ccccc3O2)[C@H]1c1ccccc1 (relative stereo) [Example I-205]
Result string: < 100%

Query string: Another compound to look at: COc1ncc(C(F)(F)F)cc1CN[C@H]1[C@H](C(C)(C)C)[C@@H](C(=O)O)N(C(=O)[C@H](C)c2ccccc2)[C@H]1c1cccnc1OC [Example I-240]
Result string: < 100%

Query string: Another compound to look at: COc1ccc(C(C)(C)C)cc1CN[C@H]1[C@H](C(C)(C)C)[C@@H](C(=O)O)N(C(=O)OC(C)C)[C@H]1c1cccc(Cl)c1 [Example 86]
Result string: > 200%

Query string: Another compound to look at: COc1cc(C(F)(F)F)ccc1CN[C@H]1[C@H](C(C)(C)C)[C@@H](C(=O)O)N(C(=O)C2CCCCC2)[C@H]1c1cccnc1N(C)C [Example I-44]
Result string: 100 to 200%

Query string: Another compound to look at: COc1ccc(C(F)(F)F)cc1CN[C@H]1[C@H](C(C)(C)C)[C@@H](C(=O)O)N(C(=O)[C@@H]2OCC[C@@H]2C(C)C)[C@H]1c1ccccc1 (relative stereo) [Example I-105]
Result string: < 100%

Query string: Another compound to look at: COc1ccc(C(C)(C)C)cc1CN[C@H]1[C@H](C(C)(C)C)[C@@H](C(=O)O)N(C(=O)[C@@H]2CCCO2)[C@H]1c1ccccc1C(C)C [Example 104]
Result string: > 200%

Query string: Another compound to look at: COc1ccc(C(F)(F)F)cc1CN[C@@H]1[C@@H](C(C)(C)C)[C@H](C(=O)O)N(C(=O)C(C)(C)OC)[C@@H]1c1ccccc1 (racemic) [Example I-41]
Result string: < 100%

Query string: Another compound to look at: COc1cc(C(F)(F)F)ccc1CN[C@@H]1[C@@H](C(C)(C)C)[C@H](C(=O)O)N(C(=O)[C@H](C)c2ccccc2)[C@@H]1c1ccccc1 [Example I-45]
Result string: < 100%

Query string: Another compound to look at: COc1cc(C(F)(F)F)ccc1CN[C@H]1[C@H](C(C)(C)C)[C@@H](C(=O)O)N(C(=O)C2C3CCCC32)[C@H]1c1ccccc1 (stereo partly shown) [Example 65]
Result string: 100 to 200%

Query string: Another compound to look at: COc1ccc(C(C)(C)C)cc1CN[C@H]1[C@H](C(C)(C)C)[C@@H](C(=O)O)N(C(=O)OC(C)C)[C@H]1c1cccnc1N1CCC1 [Example 99]
Result string: > 200%

Query string: Another compound to look at: COc1nc(C(C)(C)C)ccc1CN[C@H]1[C@H](C(C)(C)C)[C@@H](C(=O)O)N(C(=O)OC(C)C)[C@H]1c1ccccc1 [Example I-194]
Result string: > 200%

Query string: Another compound to look at: COc1ccc(C(C)(C)C)cc1CN[C@H]1[C@H](C(C)(C)C)[C@@H](C(=O)O)N(C(=O)C2CCCCC2)[C@H]1c1ccccc1 [Example 7]
Result string: > 200%

Query string: Another compound to look at: COc1nc(C(C)(C)C)ccc1CN[C@H]1[C@H](C(C)(C)C)[C@@H](C(=O)O)N(C(=O)[C@@H]2CCCCO2)[C@H]1c1ccccc1 [Example 38]
Result string: > 200%
